tested on: CAL-148; test: normalised viability (% of control), CellTiter-Blue; higher = more viable cells (about 100 = DMSO control); conditions: incubation time: 72 h
List of normalised viability values.

>>> val("NC(=O)Nc1cc(-c2cccc(F)c2)sc1C(=O)N[C@H]1CCCNC1 [AZD 7762] (30 nM)")
"93.7%"

For O=C1CCC(N2C(=O)c3ccccc3C2=O)C(=O)N1 (centres undefined) [Thalidomide] (300 nM) , what is its reported normalised viability?
117%

So what does the record say about normalised viability for CCC1(c2ccc(N)cc2)CCC(=O)NC1=O (centres undefined) [Aminoglutethimide] (300 nM) ?
104%

// query normalised viability value for entry C[C@]12CC[C@@H]3c4ccc(O)cc4C[C@@H](CCCCCCCCC[S+]([O-])CCCC(F)(F)C(F)(F)F)[C@H]3[C@@H]1CC[C@@H]2O (some centres undefined) [Fulvestrant] (300 nM)
102%

----------
system: HCC1937; assay: drug sensitivity score (DSS), CellTiter-Blue viability (DSS (AUC-based score)); higher = stronger viability inhibition; extreme values may be limits of the assay; conditions: incubation time: 72 h
endpoint: drug sensitivity score
Number only, no unit.

>>> val("NC(=O)Nc1cc(-c2cccc(F)c2)sc1C(=O)N[C@H]1CCCNC1")
2.04

Returns the measured drug sensitivity score for the input compound. Input: `CN[C@@H]1C[C@H]2O[C@@](C)([C@@H]1OC)n1c3ccccc3c3c4c(c5c6ccccc6n2c5c31)C(=O)N[C@H]4O`
20

I would be grateful if you could share the reported drug sensitivity score for `CC(=O)Nc1ccc(C(=O)Nc2ccccc2N)cc1` .
0

Which drug sensitivity score is reported for this compound? `CN(N=O)C(=O)N[C@@H](C=O)[C@@H](O)[C@H](O)[C@H](O)CO`
3.78

----------
system: DU-4475; assay: normalised response (% of control), CellTiter-Glo; higher = more viable cells (100 = DMSO, 0 = benzethonium chloride kill control); conditions: incubation time: 72 h
Catalogue of normalised response readings, one per entry.

Consider the worked cases shown below.
>>> val("C#Cc1cccc(Nc2ncnc3cc(OCCOC)c(OCCOC)cc23)c1 [Erlotinib] (1000 nM)")
"104%"
>>> val("Oc1nc(-c2ccc(C(F)(F)F)cc2)nc2c1CSCC2 [XAV-939] (10 nM)")
"104%"
>>> val("C[C@@H](Oc1cc(-c2cnn(C3CCNCC3)c2)cnc1N)c1c(Cl)ccc(F)c1Cl [Crizotinib] (1 nM)")
"105%"

Query: normalised response; subject: O=C1CCC(N2C(=O)c3ccccc3C2=O)C(=O)N1 (centres undefined) [Thalidomide] (10 nM)
97.2%

----------
system: DU-4475; assay: normalised response (% of control), CellTox Green; higher = less cell death (100 = DMSO, 0 = benzethonium chloride kill control); conditions: incubation time: 72 h
endpoint: normalised response (%)
Kindly answer with a numeric value in %, unit omitted.

>>> val("Cc1ccc(C(=O)Nc2ccc(CN3CCN(C)CC3)c(C(F)(F)F)c2)cc1C#Cc1cnc2cccnn12 [Ponatinib] (100 nM)")
99.3

Which normalised response reading was recorded for the molecule CCC1=C[C@@H]2CN(C1)Cc1c([nH]c3ccccc13)[C@@](C(=O)OC)(c1cc3c(cc1OC)N(C)[C@H]1[C@@](O)(C(=O)OC)[C@H](OC(C)=O)[C@]4(CC)C=CCN5CC[C@]31[C@@H]54)C2 [Vinorelbine] (1000 nM) ?
96.7

Param item = COc1cc([C@@H]2c3cc4c(cc3[C@@H](O[C@@H]3O[C@@H]5CO[C@@H](C)O[C@H]5[C@H](O)[C@H]3O)[C@H]3COC(=O)[C@H]23)OCO4)cc(OC)c1O [Etoposide] (1000 nM) ; retrieve measured normalised response.
93.7

Which normalised response is reported for this molecule? CO[C@H]1/C=C\C=C(/C)C(=O)NC2=CC(=O)C(NCCN(C)C)=C(C[C@@H](C)C[C@H](OC)[C@H](O)[C@@H](C)/C=C(\C)[C@@H]1OC(N)=O)C2=O [Alvespimycin] (10 nM)
101

What measured normalised response goes with CC(C)Cn1cnc2c(N)nc3ccccc3c21 [Imiquimod] (25 nM) ?
102

What value of normalised response has been reported for the following molecule? O=C1CCC(N2C(=O)c3ccccc3C2=O)C(=O)N1 (centres undefined) [Thalidomide] (100 nM)
101

Which normalised response reading was recorded for the molecule C=C(c1ccc(C(=O)O)cc1)c1cc2c(cc1C)C(C)(C)CCC2(C)C [Bexarotene] (1000 nM) ?
99.3
